// provenance: patent US20260083865A1

- study system: PSMA-expressing C4-2 cells (Homo sapiens)
- Construct: PSMA-expressing C4-2 cells (ATCC, Cat. No. CRL-3314) were cultured in RPMI-1640; host or cells: C4-2 cells
- Sequence (Q04609 whole entry): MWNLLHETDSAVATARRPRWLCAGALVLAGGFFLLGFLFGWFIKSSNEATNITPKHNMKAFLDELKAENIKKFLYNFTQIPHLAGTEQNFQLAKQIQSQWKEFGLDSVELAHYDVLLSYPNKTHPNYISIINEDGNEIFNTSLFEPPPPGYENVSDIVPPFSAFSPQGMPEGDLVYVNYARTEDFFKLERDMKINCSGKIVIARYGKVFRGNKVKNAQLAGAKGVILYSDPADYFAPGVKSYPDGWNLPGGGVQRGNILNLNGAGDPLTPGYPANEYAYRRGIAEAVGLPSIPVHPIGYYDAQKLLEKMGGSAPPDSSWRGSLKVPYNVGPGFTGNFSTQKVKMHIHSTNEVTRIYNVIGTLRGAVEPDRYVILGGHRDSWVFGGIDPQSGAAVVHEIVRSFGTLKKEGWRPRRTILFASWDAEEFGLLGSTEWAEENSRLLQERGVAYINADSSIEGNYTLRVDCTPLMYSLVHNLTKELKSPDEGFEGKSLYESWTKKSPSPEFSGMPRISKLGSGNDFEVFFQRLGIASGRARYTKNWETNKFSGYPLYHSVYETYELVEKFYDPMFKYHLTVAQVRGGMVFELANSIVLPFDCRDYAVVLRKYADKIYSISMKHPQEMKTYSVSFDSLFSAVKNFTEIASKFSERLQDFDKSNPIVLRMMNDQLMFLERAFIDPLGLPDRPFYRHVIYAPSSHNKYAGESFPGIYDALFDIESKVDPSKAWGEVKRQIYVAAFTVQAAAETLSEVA
- assay summary: FACS binding assay (competition with 50 nM PSM-0183)
- assay conditions: FACS binding, PSMA-expressing C4-2 cells; pIC50 category; read-out: pIC50 [C4-2] CAT (converted)
Numbered stars: 1 amine (or outer) side, 2 acyl side, 3 side chain; on linkers, the order of the positions; unused ones are H or OH. Bridge positions count the residues as written; N and C are the ends. Square brackets hold non-standard residues; d marks the D form. Peptide text beside a SMILES is read from it. * marks the point of attachment. DOTA = O=C(O)CN1CCN(CC(=O)O)CCN(CC(=O)*)CCN(CC(=O)O)CC1; Trp(6-Cl) = N[C@@H](Cc1c[nH]c2cc(Cl)ccc12)C(=O)O; Phe(4-Cl) = N[C@@H](Cc1ccc(Cl)cc1)C(=O)O; NMeR = CN[C@@H](CCCNC(=N)N)C(=O)O; X1 = O=C(CC1CCN([*:1])CC1)[*:2]; Cit = NC(=O)NCCC[C@H](N)C(=O)O; Tle = CC(C)(C)[C@H](N)C(=O)O; 4Abz = Nc1ccc(C(=O)O)cc1; Aib = CC(C)(N)C(=O)O
Attribute: IC50

Below, each entry is followed by its recorded IC50 result.
{"compound": "C[C@@H](O)[C@H](NC(=O)[C@@H](NC(=O)[C@@H]1CSSC[C@H](NC(=O)[C@H](Cc2ccc(Cl)cc2)NC(=O)C(C)(C)NC(=O)[C@@H](NC(=O)CC2CCN(C(=O)CN3CCN(CC(=O)O)CCN(CC(=O)O)CCN(CC(=O)O)CC3)CC2)[C@@H](C)O)C(=O)N[C@@H](CCCCN)C(=O)N(C)[C@@H](CCCNC(=N)N)C(=O)NC(C)(C)C(=O)N[C@@H](CC(N)=O)C(=O)N1)C(C)(C)C)C(N)=O [PSM-0340] ({DOTA}-[X1]T[Aib][Phe(4-Cl)]CK[NMeR][Aib]NC[Tle]T-NH2; disulfide 5-10)", "IC50": "200 to 1260 nM"}
{"compound": "CC[C@H](C)[C@H](NC(=O)CC1CCN(C(=O)CN2CCN(CC(=O)O)CCN(CC(=O)O)CCN(CC(=O)O)CC2)CC1)C(=O)NC(C)(C)C(=O)N[C@@H](Cc1ccccc1)C(=O)N[C@H]1CSSC[C@@H](C(=O)N[C@H](C(=O)N[C@H](C(N)=O)[C@@H](C)O)C(C)(C)C)NC(=O)[C@H](CC(N)=O)NC(=O)C(C)(C)NC(=O)[C@H](CCCNC(=N)N)NC(=O)[C@H](CCCCN)NC1=O [PSM-0357] ({DOTA}-[X1]I[Aib]FCKR[Aib]NC[Tle]T-NH2; disulfide 5-10)", "IC50": "200 to 1260 nM"}
{"compound": "C[C@@H](O)[C@H](NC(=O)[C@@H](NC(=O)[C@@H]1CSSC[C@H](NC(=O)[C@H](Cc2ccc(Cl)cc2)NC(=O)C(C)(C)NC(=O)CN2CCN(CC(=O)O)CCN(CC(=O)O)CCN(CC(=O)O)CC2)C(=O)N[C@@H](CCCCN)C(=O)N[C@@H](CCCNC(=N)N)C(=O)NC(C)(C)C(=O)N[C@@H](CC(N)=O)C(=O)N1)C(C)(C)C)C(N)=O [PSM-0290] ({DOTA}-[Aib][Phe(4-Cl)]CKR[Aib]NC[Tle]T-NH2; disulfide 3-8)", "IC50": "> 3160 nM"}
{"compound": "C[C@@H](O)[C@H](NC(=O)[C@@H](NC(=O)[C@@H]1CSSC[C@H](NC(=O)[C@H](Cc2c[nH]c3cc(Cl)ccc23)NC(=O)C(C)(C)NC(=O)[C@@H](NC(=O)CC2CCN(C(=O)CN3CCN(CC(=O)O)CCN(CC(=O)O)CCN(CC(=O)O)CC3)CC2)[C@@H](C)O)C(=O)N[C@@H](CCCCN)C(=O)N[C@@H](CCCNC(N)=O)C(=O)NC(C)(C)C(=O)N[C@@H](CC(N)=O)C(=O)N1)C(C)(C)C)C(N)=O [PSM-0304] ({DOTA}-[X1]T[Aib][Trp(6-Cl)]CK[Cit][Aib]NC[Tle]T-NH2; disulfide 5-10)", "IC50": "200 to 1260 nM"}

Turning now to a further compound:
Exam item: Test system PSMA-expressing C4-2 cells (Homo sapiens); read-out IC50; what value for C[C@@H](O)[C@H](NC(=O)[C@@H](NC(=O)[C@@H]1CSSC[C@H](NC(=O)[C@H](Cc2ccccc2)NC(=O)C(C)(C)NC(=O)c2ccc(NC(=O)CN3CCN(CC(=O)O)CCN(CC(=O)O)CCN(CC(=O)O)CC3)cc2)C(=O)N[C@@H](CCCCN)C(=O)N[C@@H](CCCNC(=N)N)C(=O)NC(C)(C)C(=O)N[C@@H](CC(N)=O)C(=O)N1)C(C)(C)C)C(N)=O [PSM-0316] ({DOTA-4Abz}-[Aib]FCKR[Aib]NC[Tle]T-NH2; disulfide 3-8) ?
Marked response: < 200 nM
